Value source: patent US6335339B1

- System: 2.2.15 cells
- assay.name: neutral red dye uptake cytotoxicity
- Assay type: cell-based
- measurement.conditions: 9 days treatment, read-out: 50% Cell Death CC50
Collected CC50 values appear next to each entry.

molecule	CC50
CC(C)c1ccc(C=NNc2nc(Nc3ccc([N+](=O)[O-])cc3)nc(N3CCCCC3)n2)cc1 [Compound 62]	> 100 µM
COc1ccc(C=NNc2nc(NCc3ccccc3)nc(Nc3ccccc3)n2)cc1 [Compound 165]	> 300 µM
CCN(CC)c1nc(Nc2cccc(Br)c2)nc(Nc2cc(C)ccc2C)n1 [Compound 202]	> 300 µM

----------
- Tested on: 2.2.15 cells
- assay.name: neutral red dye uptake cytotoxicity
- Type: cell-based
- measurement.conditions: 9 days treatment, read-out: 50% Cell Death CC50

molecule	CC50
CC(=NNc1nc(Nc2ccccc2)nc(N2CCCC2)n1)c1ccc([N+](=O)[O-])cc1	> 300 µM
CCN(CC)c1nc(NN=Cc2ccc(Cl)c([N+](=O)[O-])c2)nc(Nc2cc(C)ccc2C)n1	> 300 µM
O=[N+]([O-])c1ccc(Nc2nc(N/N=C/c3cccc(Cl)c3)nc(N3CCCCC3)n2)cc1	> 300 µM

----------
- Test system: HBV
- assay.name: antiviral assay in 2.2.15 cells producing HBV (virion DNA dot blot)
- Assay type: cell-based, Hepatitis B virus
- measurement.conditions: extra-cellular virus reduced by 50%; 2.2.15 cells, 9 days treatment; read-out: Antiviral EC50
Each entry below lists one item and its recorded EC50 value.

compound	EC50
CCN(CC)c1nc(NN=Cc2ccc(Cl)c([N+](=O)[O-])c2)nc(Nc2cc(C)ccc2C)n1 [Compound 214]	> 100 µM
Cc1ccc(Nc2nc(NCc3ccccc3)nc(NN=Cc3ccccc3F)n2)cc1C [Compound 228]	> 100 µM
COc1ccccc1C=NNc1nc(NCc2ccccc2)nc(Nc2ccccc2)n1 [Compound 195]	> 100 µM
COc1ccccc1C=NNc1nc(Nc2ccc([N+](=O)[O-])cc2)nc(Nc2ccc(C)c(C)c2)n1 [Compound 94]	> 100 µM
O=[N+]([O-])c1ccc(Nc2nc(NCc3ccccc3)nc(N3CCOCC3)n2)cc1 [Compound 231]	> 100 µM
Cc1ccc(Nc2nc(NCc3ccccc3)nc(Nc3ccc([N+](=O)[O-])cc3)n2)cc1C [Compound 194]	> 100 µM
CC(=NNc1nc(Nc2ccccc2)nc(N2CCCC2)n1)c1ccc(F)cc1 [Compound 227]	> 100 µM
COc1ccc(Nc2nc(NN=Cc3cc(Br)cc(Br)c3O)nc(N3CCOCC3)n2)cc1 [Compound 200]	> 100 µM
Cc1ccc(Nc2nc(NCc3ccccc3)nc(NN=Cc3cc(Cl)ccc3O)n2)cc1C [Compound 226]	> 100 µM
CN(C)c1nc(NCc2ccccc2)nc(NCc2cccs2)n1 [Compound 192]	> 100 µM
Cc1ccc(Nc2nc(NCc3ccccc3)nc(NN=Cc3cc(Br)cc(Br)c3O)n2)cc1C [Compound 219]	> 100 µM
CCCCN(CCCC)c1nc(NN=C(C)c2ccccc2)nc(Nc2ccc([N+](=O)[O-])cc2)n1 [Compound 74]	> 100 µM
Cc1ccc(Nc2nc(Nc3cccc(C(F)(F)F)c3)nc(N3CCOCC3)n2)cc1C [Compound 251]	> 100 µM
COc1c(C=NNc2nc(N3CCCC3)nc(N3CCOCC3)n2)cccc1[N+](=O)[O-] [Compound 193]	> 100 µM
Ic1cccc(C=NNc2nc(Nc3ccc4ccccc4c3)nc(N3CCOCC3)n2)c1 [Compound 166]	1.4 µM
O=[N+]([O-])c1ccc(Nc2nc(N/N=C/c3cccc(Cl)c3)nc(N3CCCCC3)n2)cc1 [Compound 41]	36 µM
CCCCN(CCCC)c1nc(NN=Cc2cccc(Cl)c2)nc(Nc2ccc([N+](=O)[O-])cc2)n1 [Compound 35]	2.3 µM
Cc1ccc(Nc2nc(NN=Cc3ccc(Cl)c(Cl)c3)nc(Nc3ccccc3)n2)c(C)c1 [Compound 40]	30 µM
C(=Cc1ccccc1)C=NNc1nc(Nc2ccccc2)nc(Nc2ccccc2)n1 [Compound 125]	3.9 µM
CCN(CC)c1nc(NN=Cc2ccc(F)cc2)nc(Nc2ccc([N+](=O)[O-])cc2)n1 [Compound 68]	> 100 µM
